This collection of values is drawn from patent US11026426B2.

test target: Ec IspD (Escherichia coli, UniProt Q46893)
Sequence (Q46893 whole entry): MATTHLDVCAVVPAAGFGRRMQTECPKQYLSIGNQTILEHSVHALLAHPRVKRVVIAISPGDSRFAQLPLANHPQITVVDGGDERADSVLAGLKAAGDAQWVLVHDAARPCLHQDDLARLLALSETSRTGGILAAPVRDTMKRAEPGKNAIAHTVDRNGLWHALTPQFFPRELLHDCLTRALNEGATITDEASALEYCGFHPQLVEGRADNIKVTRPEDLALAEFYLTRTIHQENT
experimental protocol: EnzChek enzymatic activity assay Ec IspD
Assay type: biochemical
endpoint name: pIC50
FYI, pIC50 means -log10 of a concentration in mol per litre.

CC(C)c1cc2c(c(O)c1O)[C@@]1(C(=O)O)CCCC(C)(C)[C@@H]1CC2
3.10

Okay, next one:
Query: Tell me measured pIC50 for O=C(/C=C/c1ccc(O)cc1)c1ccc(O)cc1O please.
Reply: 3.55

* * *

test target: UniProt P93841
experimental protocol: University of Hamburg photometric enzymatic inhibition assay LeIspE
Type: biochemical, Lycopersicon esculentum
test settings: read-out: LeIspE IC50
endpoint name: IC50

Some solved cases for reference:
c1ccc2[nH]c(-c3nnco3)cc2c1 [HGN-207, 2-(1H-indol-2-yl)-1,3,4-oxadiazole]
> 1000 µM
CCc1nnc(-c2cc3ccccc3[nH]2)o1 [HGN-250]
> 1000 µM
FC(F)(F)c1nnc(-c2cc3ccccc3[nH]2)o1 [HGN-211]
> 1000 µM
CC(C)c1nnc(-c2cc3ccccc3[nH]2)o1 [HGN-240]
> 1000 µM
c1ccc2[nH]c(-c3nnc(C4CCCC4)o3)cc2c1 [HGN-252]
> 1000 µM

Query: Tell me its IC50 given Oc1c(Br)cc(Br)cc1-c1cc2ccccc2[nH]1 [HGN-340, 2,4-dibromo-6-(1H-indol-2-yl)phenol] as the entry.
Reply: > 500 µM

Query: Please report the measured IC50 for FC(F)(F)c1ccc(-c2nnc(-c3nc4ccccc4[nH]3)o2)cc1 [HGN-422]
Reply: 267 µM

Query: For the molecule c1ccc(-c2ccc(-c3nnc(-c4cc5ccccc5[nH]4)o3)cc2)cc1 [HGN-288] , give its measured IC50 value.
Reply: > 1000 µM

Query: Provide measured IC50 value, entry: Cc1ccc(-c2nnc(-c3nc4ccccc4s3)o2)cc1 [HGN-338]
Reply: > 500 µM

Query: Identify the reported IC50 for the following entry. Clc1ccc(-c2nnc(-c3nc4ccccc4s3)o2)cc1 [HGN-339]
Reply: > 500 µM

Query: Dear colleague, please send me the reported IC50 for c1ccc(CCc2nnc(-c3cc4ccccc4[nH]3)o2)cc1 [HGN-215] when you can.
Reply: 430 µM

Query: Supply reported IC50 belonging to this molecule: c1ccc2[nH]c(-c3nnc(C4CCCCC4)o3)cc2c1 [HGN-254]
Reply: > 1000 µM

Query: Look up and report measured IC50 for this entry: Cc1ccc(-c2nnc(-c3cc4ccccc4[nH]3)o2)cc1 [HGN-242]
Reply: 109 µM

Query: Give IC50 for the following molecule: Clc1ccc(-c2nnc(-c3cc4ccccc4[nH]3)o2)cc1 [HGN-213]
Reply: 326 µM

Query: Entry CC(C)(C)c1nnc(-c2cc3ccccc3[nH]2)o1 [HGN-239] needs its IC50 filled in; supply it.
Reply: > 1000 µM

Query: Identify IC50 associated with the molecule FC(F)(F)c1ccc(-c2nnc(-c3nc4ccccc4s3)o2)cc1 [HGN-337]
Reply: > 500 µM

* * *

Here the recorded LeIspE melting temp is given for each entry.
test target: Lycopersicon esculentum IspE (LeIspE) (Solanum lycopersicum)
Sequence (P93841 89-401): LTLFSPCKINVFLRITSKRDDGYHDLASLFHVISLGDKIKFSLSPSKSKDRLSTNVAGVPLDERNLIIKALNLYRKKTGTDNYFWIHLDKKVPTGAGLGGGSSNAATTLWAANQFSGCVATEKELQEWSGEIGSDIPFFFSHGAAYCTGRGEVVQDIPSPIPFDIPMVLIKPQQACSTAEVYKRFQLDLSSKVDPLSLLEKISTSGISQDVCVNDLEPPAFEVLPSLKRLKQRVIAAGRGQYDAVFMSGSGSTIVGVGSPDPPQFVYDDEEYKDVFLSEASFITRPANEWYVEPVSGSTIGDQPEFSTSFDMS
experimental protocol: Thermal shift assay against LeIspE
Type: binding
Report the value in °C with no unit label.

Below are worked cases with known answers.
c1ccc2[nH]c(-c3nnc(C4CCCCC4)o3)cc2c1 [HGN-254]
47.50
CCc1nnc(-c2cc3ccccc3[nH]2)o1 [HGN-250]
46.75

Consider now this further compound.
Query: Return reported LeIspE melting temp. Input compound: c1ccc2[nH]c(-c3nnc(C4CCCC4)o3)cc2c1 [HGN-252]
Reply: 47.00

* * *

test target: AtIspD (Arabidopsis thaliana, UniProt P69834)
Sequence (P69834 62-302): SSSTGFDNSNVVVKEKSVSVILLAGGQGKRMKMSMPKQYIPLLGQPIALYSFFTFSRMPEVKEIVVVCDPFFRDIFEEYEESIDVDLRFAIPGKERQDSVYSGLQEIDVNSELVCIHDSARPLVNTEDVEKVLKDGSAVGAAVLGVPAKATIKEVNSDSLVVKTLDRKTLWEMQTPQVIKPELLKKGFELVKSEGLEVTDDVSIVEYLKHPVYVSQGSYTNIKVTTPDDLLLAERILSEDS
experimental protocol: University of Hamburg photometric enzymatic inhibition assay AtIspD
Type: biochemical
test settings: read-out: AtIspD IC50
Excerpt: Compounds were subjected to a photometric enzymatic assay to test for inhibition of the plant enzymes Arabidopsis thaliana IspD and IspF, and IspE from Lycopersicon esculentum. […]
pIC50: −log10 of the molar value.
Some compounds, each annotated with its measured pIC50.

Examples with their reported pIC50 follow.
Cc1ccc(-c2nnc(-c3nc4ccccc4s3)o2)cc1
< 3.30
C(=C\c1nnc(-c2nc3ccccc3s2)o1)/c1ccccc1
< 3.30

Query: Note down pIC50 recorded for COc1ccc(-c2nnc(-c3nc4ccccc4s3)o2)cc1
Reply: < 3.30

Query: Identify measured pIC50 corresponding to FC(F)(F)c1ccc(-c2nnc(-c3nc4ccccc4s3)o2)cc1
Reply: < 3.30

Query: Item FC(F)(F)c1ccc(-c2nnc(-c3cc4ccccc4[nH]3)o2)cc1 : provide pIC50
Reply: < 3.00

* * *

test target: UniProt:P93841
experimental protocol: Thermal shift assay against LeIspE
Assay type: binding
Each record here notes measured LeIspE melting temp.
# unit: °C | format: bare number

c1ccc(-c2cccc(-c3nnc(-c4cc5ccccc5[nH]4)o3)c2)cc1 [HGN-287]
49.25
Clc1cccc(-c2nnc(-c3cc4ccccc4[nH]3)o2)c1 [HGN-241]
47.75
C(=C\c1nnc(-c2nc3ccccc3s2)o1)/c1ccccc1 [HGN-335]
48.00
FC(F)(F)c1ccc(-c2nnc(-c3nc4ccccc4s3)o2)cc1 [HGN-337]
47.75
Cc1ccc(-c2nnc(-c3nc4ccccc4s3)o2)cc1 [HGN-338]
48.00
FC(F)(F)c1ccc(-c2nnc(-c3nc4ccccc4[nH]3)o2)cc1 [HGN-422]
46.25
FC(F)(F)c1nnc(-c2cc3ccccc3[nH]2)o1 [HGN-211]
48.75
c1ccc2[nH]c(-c3nnco3)cc2c1 [HGN-207, 2-(1H-indol-2-yl)-1,3,4-oxadiazole]
48.25

Query: Give the value of LeIspE melting temp reported for the following: O=[N+]([O-])c1cc(-c2nnc(-c3nc4ccccc4s3)o2)cc([N+](=O)[O-])c1 [HGN-334]
Reply: 48.00

Query: Consider the molecule Cc1ccc(-c2nnc(-c3cc4ccccc4[nH]3)o2)cc1 [HGN-242] and give its recorded LeIspE melting temp.
Reply: 47.75

Query: Report measured LeIspE melting temp; entry is c1ccc(-c2ccc(-c3nnc(-c4cc5ccccc5[nH]4)o3)cc2)cc1 [HGN-288]
Reply: 48.00

* * *

test target: Lycopersicon esculentum IspE (LeIspE) (Solanum lycopersicum)
experimental protocol: Thermal shift assay against LeIspE
Format: binding
endpoint name: LeIspE melting temp
Show the value, then the unit it is measured in.

Here are 5 compounds together with their reported answers.
Clc1ccc(-c2nnc(-c3nc4ccccc4[nH]3)o2)cc1
48.00 °C
Cc1nnc(-c2cc3ccccc3[nH]2)o1
47.25 °C
FC(F)(F)c1ccc(-c2nnc(-c3cc4ccccc4[nH]3)o2)cc1
48.50 °C
c1ccc(Cc2nnc(-c3cc4ccccc4[nH]3)o2)cc1
49.50 °C
Clc1ccc(OCc2nnc(-c3nc4ccccc4s3)o2)c(Cl)c1
47.75 °C

--- query ---
Query: Retrieve LeIspE melting temp on Lycopersicon esculentum IspE (LeIspE) (Solanum lycopersicum); query COc1ccc(-c2nnc(-c3cc4ccccc4[nH]3)o2)cc1
Reply: 49.25 °C
